Recorded values, source patent US20230357271A1.

- measured-on: human IRAK-4 (Homo sapiens (Human))
- Sequence (Q9NWZ3 whole entry): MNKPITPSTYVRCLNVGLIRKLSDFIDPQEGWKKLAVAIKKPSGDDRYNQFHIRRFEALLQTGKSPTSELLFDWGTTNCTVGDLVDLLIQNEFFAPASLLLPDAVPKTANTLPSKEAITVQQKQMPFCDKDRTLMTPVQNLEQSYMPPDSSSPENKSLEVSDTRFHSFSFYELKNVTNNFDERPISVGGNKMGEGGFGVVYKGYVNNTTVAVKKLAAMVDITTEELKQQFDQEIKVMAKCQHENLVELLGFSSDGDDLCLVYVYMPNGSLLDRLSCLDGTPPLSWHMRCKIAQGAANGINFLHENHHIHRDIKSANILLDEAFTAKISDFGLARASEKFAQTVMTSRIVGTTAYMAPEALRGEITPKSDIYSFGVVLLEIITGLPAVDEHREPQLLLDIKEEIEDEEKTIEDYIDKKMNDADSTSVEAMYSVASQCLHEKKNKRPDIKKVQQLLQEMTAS
- procedure-summary: Measurement of human IRAK-4 inhibitory activity (TR-FRET)
- Assay type: biochemical
- condition-description: 1 nM IRAK-4, 0.5 µM peptide substrate, 10 µM ATP, 23° C., 30 minutes
Just so you know, the groups by IC50 go like this: lower level (below 1 nM), middle level (1 nM to below 5 nM), upper level (5 nM or more)

Could you place CN1CC[C@H]2C[C@H]1C(=O)OCCCOc1c(-c3cnc(CO)nc3)ccc3ncc(cc13)N2 in its proper category? Many thanks.
middle level

Which category does the recorded IC50 put Cc1ncc(-c2ccc3ncc4nc3c2OCC(F)(F)CNC(=O)[C@@H]2C[C@H](CCN2C)N4)cn1 in?
middle level

Category of CN1CC[C@H]2C[C@H]1C(=O)NCC1(CCC1)COc1c(-c3cncnc3)ccc3ncc(nc13)N2 :
middle level

Which class holds CCCOCc1ncc(-c2ccc3ncc4nc3c2OCC(F)(F)CNC(=O)[C@@H]2C[C@H](CCN2C)N4)cn1 ?
middle level

Which class holds Cc1ncc(-c2ccc3ncc4nc3c2OCC2(CC2)COC(=O)[C@@H]2C[C@H](CCN2C)N4)cn1 ?
middle level

Exam item: assign CCCOCc1ncc(-c2ccc3ncc4nc3c2OCCCNC(=O)[C@@H]2C[C@H](CCN2C)N4)cn1 to the correct category.
middle level

Using the reported IC50, which band applies to CN1CC[C@H]2C[C@H]1C(=O)OCCCOc1c(-c3cnc(COCC(O)C4CC4)nc3)ccc3ncc(cc13)N2 (some centres unmarked) ?
upper level

Lab log: CN1CC[C@H]2C[C@H]1C(=O)NCCCOc1c(-c3cnc(CO)s3)ccc3ncc(nc13)N2 — assign IC50 category
lower level

Which category fits this record: CN1CC[C@H]2C[C@H]1C(=O)NCC1(CC1)COc1c(-c3cnc(CO)s3)ccc3ncc(nc13)N2
lower level

Which IC50 band matches CCCOCc1ncc(-c2ccc3ncc4nc3c2OCCCN(C)C(=O)[C@@H]2C[C@H](CCN2C)N4)cn1 ?
upper level
